# pIC50 per entry
- subjectOfTest: UniProtKB P03956
- assayProtocol: Inhibitory activity against recombinant matrix metalloprotease-1
pIC50: −log10 of the molar value.

Solved entries:
COc1ccc(S(=O)(=O)C(CCc2ccc(Oc3ccccc3)cc2)CC(=O)NO)cc1OC1CCCC1 (centres undefined) ... < 5.00
COc1ccc(S(=O)(=O)C(CC(=O)NO)CN(C)C(=O)c2ccccc2)cc1OC1CCCC1 (centres undefined) ... < 5.00
COc1ccc(Oc2cccc(C(CC(=O)NO)S(=O)(=O)c3ccc(OC)c(OC4CCCC4)c3)c2)cc1 (centres undefined) ... < 5.00

With those in mind, consider the next compound.
Quick check: pIC50 on UniProtKB P03956, item COc1ccc(S(=O)(=O)C(CC(=O)NO)c2ccc(OCc3ccccc3)cc2)cc1OC1CCCC1 (centres undefined) ?
< 5.00

###

- subjectOfTest: Disintegrin and metalloproteinase domain-containing protein 17 (Homo sapiens) (UniProt P78536)
- Sequence (P78536 whole entry, the tested form may be a part): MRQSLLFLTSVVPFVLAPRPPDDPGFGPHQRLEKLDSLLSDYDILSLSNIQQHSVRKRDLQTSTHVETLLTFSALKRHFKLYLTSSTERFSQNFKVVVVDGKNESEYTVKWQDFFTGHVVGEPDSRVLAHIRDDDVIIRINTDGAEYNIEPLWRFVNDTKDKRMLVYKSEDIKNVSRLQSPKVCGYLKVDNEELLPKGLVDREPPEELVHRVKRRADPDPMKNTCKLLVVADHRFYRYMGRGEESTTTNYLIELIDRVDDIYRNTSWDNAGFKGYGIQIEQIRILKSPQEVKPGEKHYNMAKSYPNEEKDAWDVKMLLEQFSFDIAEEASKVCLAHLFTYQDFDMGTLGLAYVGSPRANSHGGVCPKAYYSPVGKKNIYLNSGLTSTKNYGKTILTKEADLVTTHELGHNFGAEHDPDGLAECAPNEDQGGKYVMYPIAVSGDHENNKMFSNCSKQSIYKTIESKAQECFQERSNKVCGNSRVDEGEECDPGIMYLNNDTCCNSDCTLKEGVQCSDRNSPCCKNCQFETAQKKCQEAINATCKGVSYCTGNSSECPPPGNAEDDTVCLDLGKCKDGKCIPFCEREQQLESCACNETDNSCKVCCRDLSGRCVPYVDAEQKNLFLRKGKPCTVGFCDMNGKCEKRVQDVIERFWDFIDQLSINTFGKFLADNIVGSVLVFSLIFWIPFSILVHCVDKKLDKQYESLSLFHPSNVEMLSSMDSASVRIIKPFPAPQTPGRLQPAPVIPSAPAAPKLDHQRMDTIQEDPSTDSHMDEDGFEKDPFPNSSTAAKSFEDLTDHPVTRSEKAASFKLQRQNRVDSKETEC
- assayProtocol: Inhibitory activity against TACE
Active and inactive are the calls of the source. No cut-off for these calls is given here.
measuredParameter: Activity

COc1ccc(S(=O)(=O)C(CCCCc2ccccc2)CC(=O)NO)cc1 (stereo not drawn) ... inactive
COc1ccc(S(=O)(=O)C(CC(=O)NO)CC(C)CC(C)(C)C)cc1 (stereo not drawn) ... inactive
COc1ccc(S(=O)(=O)C(CCCc2ccccc2)CC(=O)NO)cc1 (stereo not drawn) ... inactive

###

- subjectOfTest: Stromelysin-1 (Homo sapiens, UniProt P08254)
- Sequence (P08254 whole entry): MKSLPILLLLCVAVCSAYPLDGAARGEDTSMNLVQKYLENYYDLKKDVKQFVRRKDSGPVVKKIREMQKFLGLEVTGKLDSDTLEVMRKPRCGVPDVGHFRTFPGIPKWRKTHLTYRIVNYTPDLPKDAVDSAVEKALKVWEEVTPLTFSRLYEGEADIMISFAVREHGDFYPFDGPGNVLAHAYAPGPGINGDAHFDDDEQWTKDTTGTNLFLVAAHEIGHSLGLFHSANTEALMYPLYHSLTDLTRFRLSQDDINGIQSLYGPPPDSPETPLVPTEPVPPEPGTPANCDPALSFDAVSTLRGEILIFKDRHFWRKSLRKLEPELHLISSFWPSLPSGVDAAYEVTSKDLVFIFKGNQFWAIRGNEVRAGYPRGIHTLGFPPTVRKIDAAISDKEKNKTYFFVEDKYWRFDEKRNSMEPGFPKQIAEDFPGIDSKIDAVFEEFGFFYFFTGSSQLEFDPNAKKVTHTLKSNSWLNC
- assayProtocol: In vitro inhibition of human recombinant Matrix metalloprotease-3.
pKi: −log10 of the molar value.
measuredParameter: pKi

Examples from the recorded data:
COc1ccc(S(=O)(=O)C(CCc2ccccc2)CC(=O)NO)cc1 (configuration not stated) ... 6.46
COc1ccc(S(=O)(=O)C(CC(=O)NO)C2CCCCC2)cc1 (configuration not stated) ... 7.07
COc1ccc(S(=O)(=O)C(CCCc2ccccc2)CC(=O)NO)cc1 (configuration not stated) ... 5.86
CCOC(=O)C1CCCC(C(CC(=O)NO)S(=O)(=O)c2ccc(OC)cc2)C1 (configuration not stated) ... 7.22
CCCCCCC(CC(=O)NO)S(=O)(=O)c1ccc(OC)cc1 (configuration not stated) ... 6.13
COc1ccc(S(=O)(=O)C(COCc2ccccc2)CC(=O)NO)cc1 (configuration not stated) ... 5.84
CCCCC(CC(=O)NO)S(=O)(=O)c1ccc(OC)cc1 (configuration not stated) ... 6.39
COc1ccc(S(=O)(=O)C(CC(=O)NO)c2ccccc2)cc1 (configuration not stated) ... 5.48

A: COC(=O)c1ccc(C(CC(=O)NO)S(=O)(=O)c2ccc(OC)cc2)cc1 (configuration not stated)
B: CCCCC(CC)C(CC(=O)NO)S(=O)(=O)c1ccc(OC)cc1 (configuration not stated)
C: COc1ccc(S(=O)(=O)C(CCC2CCCCC2)CC(=O)NO)cc1 (configuration not stated)
D: COc1ccc(S(=O)(=O)C(CC(=O)NO)C(C)c2ccccc2)cc1 (configuration not stated)
List these items ordered by pKi, big to small. Write the labels, ordered according to the request.
B, D, C, A
(B: 6.74, D: 6.52, C: 6.23, A: 5.35)

###

- subjectOfTest: Phosphodiesterase 4 (Cavia porcellus)
- assayProtocol: Phosphodiesterase 4 inhibitory activity measured against guinea pig macrophage homogenate
measuredParameter: IC50 (nM)

COc1ccc(S(=O)(=O)C(CC(=O)NO)c2ccc(OCc3ccccc3)cc2)cc1 (stereo unspecified) ... 520

A: COc1ccc(S(=O)(=O)C(CCC(=O)N2CCCc3ccccc32)CC(=O)NO)cc1OC (stereo unspecified)
B: COc1ccc(S(=O)(=O)C(CCCN2C(=O)c3ccccc3C2=O)CC(=O)NO)cc1OC1CCCC1 (stereo unspecified)
C: COc1ccc(S(=O)(=O)C(CCN(C)C(=O)c2ccccc2)CC(=O)NO)cc1OC1CCCC1 (stereo unspecified)
D: COc1ccc(S(=O)(=O)C(CCc2ccc(OCc3ccccc3)cc2)CC(=O)NO)cc1OC1CCCC1 (stereo unspecified)
List the 4 entries from lowest IC50 to highest IC50 value. // format: requested-order list of labels
B, D, A, C

###

- subjectOfTest: Interstitial collagenase (Homo sapiens, UniProt P03956)
- Sequence (P03956 whole entry): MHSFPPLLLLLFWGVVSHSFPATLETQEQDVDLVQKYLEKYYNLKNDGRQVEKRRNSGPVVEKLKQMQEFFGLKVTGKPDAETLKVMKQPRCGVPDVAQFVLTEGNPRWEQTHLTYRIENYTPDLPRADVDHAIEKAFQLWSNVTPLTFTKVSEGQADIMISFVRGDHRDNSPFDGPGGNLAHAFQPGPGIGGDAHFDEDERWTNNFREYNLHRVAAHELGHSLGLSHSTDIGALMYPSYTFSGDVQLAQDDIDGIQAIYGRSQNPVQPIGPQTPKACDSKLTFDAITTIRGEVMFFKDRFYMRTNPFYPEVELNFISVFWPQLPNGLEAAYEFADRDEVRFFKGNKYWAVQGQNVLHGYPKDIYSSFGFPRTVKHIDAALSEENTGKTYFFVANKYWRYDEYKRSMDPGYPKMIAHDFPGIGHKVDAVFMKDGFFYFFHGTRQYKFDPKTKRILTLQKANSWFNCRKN
- assayProtocol: In vitro inhibition of human recombinant Matrix metalloprotease-1.
pKi: −log10 of the molar value.
measuredParameter: pKi

CCCCC(CC(=O)NO)S(=O)(=O)c1ccc(OC)cc1 (configuration not stated) ... 5.38
COc1ccc(S(=O)(=O)C(CC(=O)NO)CC(C)CC(C)(C)C)cc1 (configuration not stated) ... 5.76

1: COc1ccc(S(=O)(=O)C(CC(=O)NO)C(C)c2ccccc2)cc1 (configuration not stated)
2: COc1ccc(S(=O)(=O)C(CCC2CCCCC2)CC(=O)NO)cc1 (configuration not stated)
# returns the entry with the larger pKi; inputs 1 and 2 Write the label of whichever entry you select.
2

###

- subjectOfTest: Interstitial collagenase (Homo sapiens, UniProt P03956)
- assayProtocol: In vitro inhibition of human recombinant Matrix metalloprotease-1.
pKi: −log10 of the molar value.
measuredParameter: pKi

CCOC(=O)C1CCCC(C(CC(=O)NO)S(=O)(=O)c2ccc(OC)cc2)C1 (stereo not given) ... 6.00
COc1ccc(S(=O)(=O)C(CCCc2ccccc2)CC(=O)NO)cc1 (stereo not given) ... 5.59
COC(=O)c1ccc(C(CC(=O)NO)S(=O)(=O)c2ccc(OC)cc2)cc1 (stereo not given) ... 5.72
COc1ccc(S(=O)(=O)C(CC(=O)NO)C2CCCCC2)cc1 (stereo not given) ... 5.77

A: COc1ccc(S(=O)(=O)C(CCc2ccccc2)CC(=O)NO)cc1 (stereo not given)
B: CCCCC(CC)C(CC(=O)NO)S(=O)(=O)c1ccc(OC)cc1 (stereo not given)
C: CCCCCCC(CC(=O)NO)S(=O)(=O)c1ccc(OC)cc1 (stereo not given)
Arrange the 3 molecules from largest to smallest pKi. Reply with the item labels sorted in the order that was asked for.
B, A, C

###

Recorded IC50 by entry
- subjectOfTest: 72 kDa type IV collagenase (Homo sapiens, UniProt P08253)
- Sequence (P08253 whole entry): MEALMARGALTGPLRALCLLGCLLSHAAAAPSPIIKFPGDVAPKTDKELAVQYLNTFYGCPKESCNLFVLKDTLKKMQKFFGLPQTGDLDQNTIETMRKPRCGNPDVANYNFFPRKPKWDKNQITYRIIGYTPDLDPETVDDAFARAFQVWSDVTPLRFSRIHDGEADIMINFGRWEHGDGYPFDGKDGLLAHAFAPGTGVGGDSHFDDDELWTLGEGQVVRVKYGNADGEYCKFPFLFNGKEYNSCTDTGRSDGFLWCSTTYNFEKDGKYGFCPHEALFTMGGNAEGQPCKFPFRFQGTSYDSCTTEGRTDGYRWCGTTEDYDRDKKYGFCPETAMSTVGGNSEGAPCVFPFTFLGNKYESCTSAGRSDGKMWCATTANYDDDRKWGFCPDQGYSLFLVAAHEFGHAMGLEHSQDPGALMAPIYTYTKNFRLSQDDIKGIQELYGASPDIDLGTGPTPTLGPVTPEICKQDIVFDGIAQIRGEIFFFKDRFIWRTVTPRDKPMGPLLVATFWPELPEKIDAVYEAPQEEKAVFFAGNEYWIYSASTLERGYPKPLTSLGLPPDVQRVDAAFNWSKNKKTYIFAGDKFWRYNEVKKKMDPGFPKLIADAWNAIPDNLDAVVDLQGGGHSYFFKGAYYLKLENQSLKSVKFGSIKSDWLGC
- assayProtocol: Inhibitory activity against recombinant matrix metalloprotease-2

Check out these entries, answers already filled in.
COc1ccc(S(=O)(=O)C(CCc2ccc(OCc3ccccc3)cc2)CC(=O)NO)cc1OC (configuration not stated) ... > 10 µM
COc1ccc(S(=O)(=O)C(CCC(=O)N2CCCc3ccccc32)CC(=O)NO)cc1OC1CCCC1 (configuration not stated) ... > 10 µM
COc1ccc(S(=O)(=O)C(CCCC(=O)N(C)c2ccccc2)CC(=O)NO)cc1OC1CCCC1 (configuration not stated) ... > 10 µM
COc1ccc(S(=O)(=O)C(CCc2ccc(OCc3ccccc3)cc2)CC(=O)NO)cc1OC1CCCC1 (configuration not stated) ... > 10 µM
CCCC(CC(=O)NO)S(=O)(=O)c1ccc(OC)c(OC2CCCC2)c1 (configuration not stated) ... > 10 µM
COc1ccc(S(=O)(=O)C(CCCCc2ccc3c(c2)OCO3)CC(=O)NO)cc1OC (configuration not stated) ... > 10 µM
COc1ccc(S(=O)(=O)C(CC(=O)NO)CC(C)C)cc1OC (configuration not stated) ... > 10 µM
COc1ccc(S(=O)(=O)C(CC(=O)NO)c2ccccc2)cc1OC (configuration not stated) ... > 10 µM
COc1ccc(S(=O)(=O)C(CCCN2C(=O)c3ccccc3C2=O)CC(=O)NO)cc1OC1CCCC1 (configuration not stated) ... > 10 µM
COc1ccc(S(=O)(=O)C(CC(=O)NO)c2cccc(OCc3ccccc3)c2)cc1OC1CCCC1 (configuration not stated) ... > 10 µM

I'd like to know its IC50. The compound in question is COc1ccc(S(=O)(=O)C(CCC(=O)N(C)c2ccccc2)CC(=O)NO)cc1OC1CCCC1 (configuration not stated)
> 10 µM

###

- subjectOfTest: Phosphodiesterase 4 (Cavia porcellus)
- assayProtocol: Phosphodiesterase 4 inhibitory activity measured against guinea pig macrophage homogenate
measuredParameter: IC50 (nM)

Please review the following examples before continuing.
COc1ccc(S(=O)(=O)C(CCc2ccc(Oc3ccccc3)cc2)CC(=O)NO)cc1OC1CCCC1 (centres undefined) ... 32
COc1ccc(S(=O)(=O)C(CC(=O)NO)CN(C)C(=O)c2ccccc2)cc1OC1CCCC1 (centres undefined) ... 974
COc1ccc(Oc2cccc(C(CC(=O)NO)S(=O)(=O)c3ccc(OC)c(OC4CCCC4)c3)c2)cc1 (centres undefined) ... 49
COc1ccc(S(=O)(=O)C(CCCC(=O)N(C)c2ccccc2)CC(=O)NO)cc1OC1CCCC1 (centres undefined) ... 118
COc1ccc(S(=O)(=O)C(CCCC(=O)N2CCCc3ccccc32)CC(=O)NO)cc1OC (centres undefined) ... 295

1: COc1ccc(S(=O)(=O)C(CCCCc2ccccc2)CC(=O)NO)cc1OC1CCCC1 (centres undefined)
2: COc1ccc(S(=O)(=O)C(CC(=O)NO)c2ccccc2)cc1OC (centres undefined)
For this pair, 1 and 2 , which shows a numerically higher IC50? Provide the label of your selected option as the answer.
2
(2: 580 nM, 1: 6.9 nM)

P: COc1ccc(S(=O)(=O)C(CCC(=O)N(C)c2ccccc2)CC(=O)NO)cc1OC1CCCC1 (centres undefined)
Q: COc1ccc(S(=O)(=O)C(CCCCc2ccc3c(c2)OCO3)CC(=O)NO)cc1OC1CCCC1 (centres undefined)
Lower IC50: P or Q ? Mark your answer with the label of the selected entry.
Q
(Q: 11 nM, P: 50 nM)
